Reported GI50 values follow for various compounds
assay: Cytotoxicity against human H1299 cells after 72 hrs by CellTitre-Blue assay; format: functional; conditions: NCI-H1299, 72 h

| compound | GI50 (nM) |
| --- | --- |
| COc1ccc2c(c1O)OCCC2c1cc(OC)c(OC)c(OC)c1 (stereo unspecified) | 80 |
| COc1ccc2c(c1N)OCC=C2c1cc(OC)c(OC)c(OC)c1 | 60 |
| C=C(c1ccc(OC)c(O)c1)c1cc(OC)c(OC)c(OC)c1 | 5 |
| COc1ccc2c(c1O)OCC=C2c1cc(OC)c(OC)c(OC)c1 | 15 |
| COc1ccc(/C=C\c2cc(OC)c(OC)c(OC)c2)cc1O | 5.1 |
| COc1ccc2c(c1N)OCCC2c1cc(OC)c(OC)c(OC)c1 (stereo unspecified) | 60 |

----------
tested on: MDA-MB-231; assay: Cytotoxicity against human MDA-MB-231 cells after 72 hrs by CellTitre-Blue assay; assay type: functional; details: MDA-MB-231, 72 h
Threshold 4 nM: GI50 strictly smaller gives Fulfilled, otherwise Not fulfilled.

| molecule | cat |
| --- | --- |
| COc1ccc2c(c1N)OCC=C2c1cc(OC)c(OC)c(OC)c1 | Not fulfilled |
| COc1ccc2c(c1O)OCC=C2c1cc(OC)c(OC)c(OC)c1 | Not fulfilled |
| COc1ccc(/C=C\c2cc(OC)c(OC)c(OC)c2)cc1O | Fulfilled |
| COc1ccc2c(c1N)OCCC2c1cc(OC)c(OC)c(OC)c1 (stereo unspecified) | Not fulfilled |
| COc1ccc2c(c1O)OCCC2c1cc(OC)c(OC)c(OC)c1 (stereo unspecified) | Not fulfilled |

----------
Reported GI50 values follow for various compounds
system: K562; assay: Cytotoxicity against human K562 cells after 72 hrs by CellTitre-Blue assay; format: functional; conditions: K562, 72 h
readoutLabel: GI50 (nM)

| compound | readoutLabel | measuredValue |
| --- | --- | --- |
| COc1ccc2c(c1O)OCC=C2c1cc(OC)c(OC)c(OC)c1 | GI50 | 32 |
| C=C(c1ccc(OC)c(O)c1)c1cc(OC)c(OC)c(OC)c1 | GI50 | 5.2 |
| COc1ccc2c(c1N)OCCC2c1cc(OC)c(OC)c(OC)c1 (stereo unspecified) | GI50 | 70 |
| COc1ccc2c(c1N)OCC=C2c1cc(OC)c(OC)c(OC)c1 | GI50 | 60 |
| COc1ccc(/C=C\c2cc(OC)c(OC)c(OC)c2)cc1O | GI50 | 4.3 |
| COc1ccc2c(c1O)OCCC2c1cc(OC)c(OC)c(OC)c1 (stereo unspecified) | GI50 | 75 |

FYI, the data here is from ChEMBL document CHEMBL3397000.
